Give pIC50 for every item shown.
- measurement.target: recombinant human SPR (Sepiapterin Reductase) (Homo sapiens (Human))
- measurement.protocol: SPR inhibition biochemical assay with chromogenic (OD at 420 nm) and LC/MS (L-biopterin formation) read-out
- test.context: LC/MS read-out, L-biopterin product formation; SPR 6 nM, L-Sepiapterin 50 μM, NADPH 100 μM, pH 6.5, 60 minutes at 37° C.; read-out: IC50 LC/MS
Would you please state pIC50, meaning minus log10 of the concentration in mol/L, as a bare number?

Challenge: Field request: pIC50 | item: O=C(NCCc1c[nH]c2ccc(O)cc12)C1CC1
Response given: 6.47

Challenge: What value of measured pIC50 is listed for COCC(=O)NCC(=O)c1c[nH]c2ccc(O)cc12 ?
Response given: 6.51

Challenge: Return reported pIC50; argument: COCC(=O)NCCc1c[nH]c2ccc(O)cc12 [N-Methoxyacetyl-Serotonin, reference compound]
Response given: 7.37

Challenge: Entry under review: COCC(=O)NCCc1c[nH]c2ccc(S(C)(=O)=O)cc12 . Reported pIC50?
Response given: 5.49

Challenge: Fill in: pIC50 of COCC(=O)NCCc1cccc(O)c1 is ___
Response given: 7.16

====

- measurement.target: recombinant human SPR (Sepiapterin Reductase) (Homo sapiens (Human), UniProt P35270)
- Sequence (P35270 whole entry): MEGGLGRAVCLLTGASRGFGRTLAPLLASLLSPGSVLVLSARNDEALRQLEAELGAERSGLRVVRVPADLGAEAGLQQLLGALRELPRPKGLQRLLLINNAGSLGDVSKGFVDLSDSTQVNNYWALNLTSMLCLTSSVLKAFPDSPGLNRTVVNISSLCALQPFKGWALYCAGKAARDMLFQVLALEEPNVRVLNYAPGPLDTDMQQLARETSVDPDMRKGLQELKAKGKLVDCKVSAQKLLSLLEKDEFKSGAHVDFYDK
- measurement.protocol: SPR inhibition biochemical assay with chromogenic (OD at 420 nm) and LC/MS (L-biopterin formation) read-out
- test.context: chromogenic read-out, OD at 420 nm; SPR 6 nM, L-Sepiapterin 50 μM, NADPH 100 μM, pH 6.5, 60 minutes at 37° C.; read-out: IC50 chromogenic
attribute.measured: pIC50
pIC50 field: float, defined as -log10 of concentration (mol/L).

Challenge: Need pIC50, item COCC(=O)NCCc1cn(C)c2ccc(O)cc12 [(21)]
Response given: 7.08

Challenge: Consider the compound shown here: COCC(=O)NCCc1c[nH]c2ccc(S(C)(=O)=O)cc12 [(17)] What is its recorded pIC50?
Response given: 5.35

Challenge: Would you kindly share the measured pIC50 for Oc1ccc2[nH]cc(CCNc3cccnc3)c2c1 [(12)] ?
Response given: 5.68

Challenge: Look at this compound and give its reported pIC50. COCC(=O)NCCc1c[nH]c2ccc(F)cc12 [(16)]
Response given: 5.47

====

- measurement.target: recombinant human SPR (Sepiapterin Reductase) (Homo sapiens (Human), UniProt P35270)
- measurement.protocol: SPR inhibition biochemical assay with chromogenic (OD at 420 nm) and LC/MS (L-biopterin formation) read-out
- test.context: chromogenic read-out, OD at 420 nm; SPR 6 nM, L-Sepiapterin 50 μM, NADPH 100 μM, pH 6.5, 60 minutes at 37° C.; read-out: IC50 chromogenic
Record form. Attribute: log10 of IC50. Fill in for each entry.
Log10 applied to IC50; unit prior to transform: nM.

Challenge: Which log10 of IC50 value belongs to COCC(=O)NCCc1c[nH]c2ccc(O)cc12 [N-Methoxyacetyl-Serotonin, reference compound] ?
Response given: 1.62

Challenge: Fill blank: measured log10 of IC50 of the compound O=C(NCCc1c[nH]c2ccc(O)cc12)C1CC1 is ____.
Response given: 2.56

Challenge: Which value of log10 of IC50 has been reported for CCOCC(=O)NCCc1c[nH]c2ccc(O)cc12 in the records?
Response given: 3.45

Challenge: Bench note: what log10 of IC50 did CC(C)C(=O)NCCc1c[nH]c2ccc(O)cc12 show?
Response given: 2.60

Challenge: Fill blank: measured log10 of IC50 of the compound COCC(=O)NCCc1cccc(O)c1 is ____.
Response given: 1.81

Challenge: If you can, please state the reported log10 of IC50 value of COCC(=O)NCC(=O)c1c[nH]c2ccc(O)cc12 .
Response given: 2.49

Values compiled from patent US9169234B2.
